// reported EC50 for each item listed
- System: Human immunodeficiency virus 1
- TEST_METHOD_NOTES: Antiviral activity against HIV-1 harboring RT F227L/V106A mutant infected in human MT4 cells assessed as protection against virus-induced cytopathogenicity after 5 days by MTT assay
- Type: functional, organism-based
- APPLIED_CONDITIONS: Human immunodeficiency virus 1, MT4, 120 h
RECORDED_METRIC: EC50 (nM)

- Cc1cc(C#N)cc(C)c1Oc1nc(NC2CCN(Cc3ccc(S(C)(=O)=O)cc3)CC2)ncc1-c1ccccc1: 218
- Cc1cc(C#N)cc(C)c1Oc1nc(NC2CCN(Cc3ccc(S(C)(=O)=O)cc3)CC2)ncc1-c1ccoc1: 41.5
- Cc1cc(C#N)cc(C)c1Oc1nc(NC2CCN(Cc3ccc(S(C)(=O)=O)cc3)CC2)ncc1-c1ccco1: 110
- Cc1cc(C#N)cc(C)c1Oc1nc(NC2CCN(Cc3ccc(S(C)(=O)=O)cc3)CC2)ncc1-c1ccncc1: 79.4
- Cc1cc(/C=C/C#N)cc(C)c1Oc1nc(NC2CCN(Cc3ccc(S(N)(=O)=O)cc3)CC2)ncc1-c1cccnc1: 12.2
- Cc1cc(C#N)cc(C)c1Oc1nc(NC2CCN(Cc3ccc(S(N)(=O)=O)cc3)CC2)ncc1-c1ccco1: 128
- Cc1cc(/C=C/C#N)cc(C)c1Oc1nc(NC2CCN(Cc3ccc(C(N)=O)cc3)CC2)ncc1-c1cccnc1: 21.7
- Cc1cc(C#N)cc(C)c1Oc1nc(NC2CCN(Cc3ccc(S(C)(=O)=O)cc3)CC2)ncc1-c1cccs1: 38.4
- Cc1cc(C#N)cc(C)c1Oc1nc(NC2CCN(Cc3ccc(C(N)=O)cc3)CC2)ncc1-c1ccncc1: 10.4
- Cc1cc(/C=C/C#N)cc(C)c1Oc1nc(NC2CCN(Cc3ccc(C(N)=O)cc3)CC2)ncc1-c1ccc(N)nc1: 15.4
- Cc1cc(/C=C/C#N)cc(C)c1Oc1nc(NC2CCN(Cc3ccc(C(N)=O)cc3)CC2)ncc1-c1ccncc1: 35.5
- Cc1cc(C#N)cc(C)c1Oc1nc(NC2CCN(Cc3ccc(C(N)=O)cc3)CC2)ncc1-c1ccccc1: 393
- Cc1cc(C#N)cc(C)c1Oc1nc(NC2CCN(Cc3ccc(S(N)(=O)=O)cc3)CC2)ncc1-c1cccs1: 30.2
- Cc1cc(C#N)cc(C)c1Oc1nc(NC2CCN(Cc3ccc(C(N)=O)cc3)CC2)ncc1-c1cccs1: 75.4
- Cc1cc(C#N)cc(C)c1Oc1nc(NC2CCN(Cc3ccc(S(N)(=O)=O)cc3)CC2)ncc1-c1ccccc1: 219
- Cc1cc(/C=C/C#N)cc(C)c1Oc1nc(NC2CCN(Cc3ccc(S(N)(=O)=O)cc3)CC2)ncc1-c1ccncc1: 23.7

---

Let's look at some compounds and their measured EC50.
- Tested on: Human immunodeficiency virus 1
- TEST_METHOD_NOTES: Antiviral activity against NNRTI-resistant HIV-1 RES056 harboring RT K103N/Y181C mutant infected in human MT4 cells assessed as protection against virus-induced cytopathogenicity after 5 days by MTT assay
- Type: functional, organism-based
- APPLIED_CONDITIONS: Human immunodeficiency virus 1, RES056, MT4, 120 h
RECORDED_METRIC: EC50 (nM)

- Cc1cc(C#N)cc(C)c1Oc1nc(NC2CCN(Cc3ccc(C(N)=O)cc3)CC2)ncc1-c1cccs1: 115
- Cc1cc(/C=C/C#N)cc(C)c1Oc1nc(NC2CCN(Cc3ccc(S(N)(=O)=O)cc3)CC2)ncc1-c1ccc(F)nc1: 28.2
- Cc1cc(/C=C/C#N)cc(C)c1Oc1nc(NC2CCN(Cc3ccc(S(N)(=O)=O)cc3)CC2)ncc1-c1ccnc(Br)c1: 26.9
- Cc1cc(C#N)cc(C)c1Oc1nc(NC2CCN(Cc3ccc(C(N)=O)cc3)CC2)ncc1-c1ccccc1: 562
- Cc1cc(/C=C/C#N)cc(C)c1Oc1nc(NC2CCN(Cc3ccc(S(C)(=O)=O)cc3)CC2)ncc1-c1cccnc1: 22.4
- Cc1cc(/C=C/C#N)cc(C)c1Oc1nc(NC2CCN(Cc3ccc(S(C)(=O)=O)cc3)CC2)ncc1-c1ccc(F)nc1: 25.5
- Cc1cc(/C=C/C#N)cc(C)c1Oc1nc(NC2CCN(Cc3ccc(C(N)=O)cc3)CC2)ncc1-c1ccc(F)nc1: 20.4
- Cc1cc(/C=C/C#N)cc(C)c1Oc1nc(NC2CCN(Cc3ccc(C(N)=O)cc3)CC2)ncc1-c1ccnc(F)c1: 53.4
- Cc1cc(C#N)cc(C)c1Oc1nc(NC2CCN(Cc3ccc(S(N)(=O)=O)cc3)CC2)ncc1-c1ccncc1: 111
- Cc1cc(/C=C/C#N)cc(C)c1Oc1nc(NC2CCN(Cc3ccc(S(N)(=O)=O)cc3)CC2)ncc1-c1ccnc(Cl)c1: 20.9
- Cc1cc(C#N)cc(C)c1Oc1nc(NC2CCN(Cc3ccc(S(N)(=O)=O)cc3)CC2)ncc1-c1ccco1: 218
- Cc1cc(C#N)cc(C)c1Oc1nc(NC2CCN(Cc3ccc(S(N)(=O)=O)cc3)CC2)ncc1-c1ccsc1: 209
- Cc1cc(/C=C/C#N)cc(C)c1Oc1nc(NC2CCN(Cc3ccc(C(N)=O)cc3)CC2)ncc1-c1cccnc1: 23.1
- Cc1cc(-c2cnc(NC3CCN(Cc4ccc(S(N)(=O)=O)cc4)CC3)nc2Oc2c(C)cc(/C=C/C#N)cc2C)ccn1: 23
- Cc1cc(C#N)cc(C)c1Oc1nc(NC2CCN(Cc3ccc(S(C)(=O)=O)cc3)CC2)ncc1-c1cccs1: 134
- Cc1cc(C#N)cc(C)c1Oc1nc(NC2CCN(Cc3ccc(S(N)(=O)=O)cc3)CC2)ncc1-c1ccoc1: 161

---

- Tested on: Human immunodeficiency virus 1
- TEST_METHOD_NOTES: Antiviral activity against HIV-1 harboring RT E138K mutant infected in human MT4 cells assessed as protection against virus-induced cytopathogenicity after 5 days by MTT assay
- Format: functional, organism-based
- APPLIED_CONDITIONS: Human immunodeficiency virus 1, MT4, 120 h
RECORDED_METRIC: EC50 (nM)

• Cc1cc(C#N)cc(C)c1Oc1nc(NC2CCN(Cc3ccc(C(N)=O)cc3)CC2)ncc1-c1ccsc1 = 22
• Cc1cc(C#N)cc(C)c1Oc1nc(NC2CCN(Cc3ccc(S(N)(=O)=O)cc3)CC2)ncc1-c1ccncc1 = 8.12
• Cc1cc(C#N)cc(C)c1Oc1nc(NC2CCN(Cc3ccc(C(N)=O)cc3)CC2)ncc1-c1ccccc1 = 17.1
• Cc1cc(/C=C/C#N)cc(C)c1Oc1nc(NC2CCN(Cc3ccc(C(N)=O)cc3)CC2)ncc1-c1ccc(N)nc1 = 15.4
• Cc1cc(C#N)cc(C)c1Oc1nc(NC2CCN(Cc3ccc(C(N)=O)cc3)CC2)ncc1-c1ccco1 = 11.9
• Cc1cc(C#N)cc(C)c1Oc1nc(NC2CCN(Cc3ccc(S(C)(=O)=O)cc3)CC2)ncc1-c1ccccc1 = 32.1
• Cc1cc(C#N)cc(C)c1Oc1nc(NC2CCN(Cc3ccc(C(N)=O)cc3)CC2)ncc1-c1ccoc1 = 11.2
• Cc1cc(/C=C/C#N)cc(C)c1Oc1nc(NC2CCN(Cc3ccc(C(N)=O)cc3)CC2)ncc1-c1ccncc1 = 8.66

---

- Test system: Human immunodeficiency virus 1
- TEST_METHOD_NOTES: Antiviral activity against HIV-1 harboring RT E138K mutant infected in human MT4 cells assessed as protection against virus-induced cytopathogenicity after 5 days by MTT assay
- Format: functional, organism-based
- APPLIED_CONDITIONS: Human immunodeficiency virus 1, MT4, 120 h
pEC50: −log10 of the molar value.
Parameter pEC50: see the listing below.
RECORDED_METRIC: pEC50

- Cc1cc(C#N)cc(C)c1Oc1nc(NC2CCN(Cc3ccc(C(N)=O)cc3)CC2)ncc1-c1ccncc1: 7.96
- Cc1cc(/C=C/C#N)cc(C)c1Oc1nc(NC2CCN(Cc3ccc(S(N)(=O)=O)cc3)CC2)ncc1-c1cccnc1: 7.92
- Cc1cc(C#N)cc(C)c1Oc1nc(NC2CCN(Cc3ccc(S(C)(=O)=O)cc3)CC2)ncc1-c1cccs1: 8.20
- Cc1cc(C#N)cc(C)c1Oc1nc(Nc2ccc(C#N)cc2)nc(N)c1Br [ETRAVIRINE]: 8.14
- Cc1cc(C#N)cc(C)c1Oc1nc(NC2CCN(Cc3ccc(S(N)(=O)=O)cc3)CC2)ncc1-c1ccoc1: 7.89
- Cc1cc(/C=C/C#N)cc(C)c1Oc1nc(NC2CCN(Cc3ccc(S(N)(=O)=O)cc3)CC2)ncc1-c1ccc(F)nc1: 7.31
- Cc1cc(C#N)cc(C)c1Oc1nc(NC2CCN(Cc3ccc(S(C)(=O)=O)cc3)CC2)ncc1-c1ccco1: 7.56
- Cc1cc(C#N)cc(C)c1Oc1nc(NC2CCN(Cc3ccc(S(N)(=O)=O)cc3)CC2)ncc1-c1ccsc1: 7.71
- Cc1cc(C#N)cc(C)c1Oc1nc(NC2CCN(Cc3ccc(S(N)(=O)=O)cc3)CC2)ncc1-c1cccs1: 8.11
- Cc1cc(C#N)cc(C)c1Oc1nc(NC2CCN(Cc3ccc(S(C)(=O)=O)cc3)CC2)ncc1-c1ccsc1: 7.97
- Cc1cc(C#N)cc(C)c1Oc1nc(NC2CCN(Cc3ccc(C(N)=O)cc3)CC2)ncc1-c1cccs1: 8.05
- Cc1cc(C#N)cc(C)c1Oc1nc(NC2CCN(Cc3ccc(S(N)(=O)=O)cc3)CC2)ncc1-c1ccccc1: 7.61
- Cc1cc(/C=C/C#N)cc(C)c1Oc1nc(NC2CCN(Cc3ccc(C(N)=O)cc3)CC2)ncc1-c1ccc(F)nc1: 7.93
- Cc1cc(/C=C/C#N)cc(C)c1Oc1nc(NC2CCN(Cc3ccc(S(C)(=O)=O)cc3)CC2)ncc1-c1cccnc1: 7.91
- Cc1cc(C#N)cc(C)c1Oc1nc(NC2CCN(Cc3ccc(S(N)(=O)=O)cc3)CC2)ncc1-c1ccco1: 7.61
- Cc1cc(/C=C/C#N)cc(C)c1Oc1nc(NC2CCN(Cc3ccc(C(N)=O)cc3)CC2)ncc1-c1cccnc1: 7.95

Cited source: ChEMBL document CHEMBL4834412
